Reported values: pIC50 for PKA (Homo sapiens, UniProt P17612), one per item.
Counter-ions that a name gives are not always drawn.
// pIC50 here means minus log10 of the molar concentration (mol/L)

Ask | Field request: pIC50 | item: C[C@@H]1C[C@H]2[C@@H]3CCC4=CC(=O)C=C[C@]4(C)[C@@]3(F)[C@@H](O)C[C@]2(C)[C@@]1(O)C(=O)COC(=O)C[C@H](N)C(=O)OCc1ccc([C@@H](CN)C(=O)Nc2ccc3cnccc3c2)cc1 [Example 83, trihydrochloride]
Reply | 7.54

Ask | Field request: pIC50 | item: C[C@@H]1C[C@H]2[C@@H]3CCC4=CC(=O)C=C[C@]4(C)[C@@]3(F)[C@@H](O)C[C@]2(C)[C@@]1(O)C(=O)COC(=O)CCC(=O)OCc1ccc([C@@H](CN)C(=O)Nc2ccc3cnccc3c2)cc1 [Example 25]
Reply | 6.86
